Source listed as PubChem BioAssay (NCI).

tested on: SF-539 CNS; assay: NCI tumour cell line growth inhibition, 48 h
Kindly state TGI for each of the entries shown.
Quick reminder: number only, in µM, skip the unit.

The measured TGI associated with C=CCc1cccc(/C=N\N=C(/N)NO)c1O reads 6.81

The measured TGI associated with COc1cc(C23OCC(Cc4cc5c(cc42)OCO5)C3CO)cc(OC)c1OC (stereo unspecified) reads 26.2

The measured TGI associated with CSc1ccc(C2=NN(C(C)=O)C(c3ccc(F)cc3)C2)cc1 (stereo unspecified) reads 35.4

The measured TGI associated with Cc1cn2c(/C=C3/C(=O)Nc4ccc(F)cc43)c(C)nc2s1 reads 18.4

###

test system: 786-0 renal; experiment: NCI tumour cell line growth inhibition, 48 h
quantity name: TGI (µM)
Quick reminder: number only, in µM, skip the unit.

The measured TGI associated with COc1ccc(CNc2cnc3cc(N)cc(N)c3n2)cc1 reads 31.6

The measured TGI associated with CC[C@@H](/C=C\CCC1(C[C@@H](N)CCC=C(C)C)OCCO1)O[Si](C(C)C)(C(C)C)C(C)C reads 31.8

The measured TGI associated with CC(=O)NC(CCCCN(Cc1ccccc1)C(=O)N(CCCl)N=O)C(=O)NCc1ccccc1 (stereo unspecified) reads 24.9

The measured TGI associated with CCOC(=O)C1SC(=Nc2ccc(Cl)cc2C)N=C1C (stereo unspecified) reads 32.6

The measured TGI associated with COC(=O)C1=C(C(=O)OC)C2OC1c1cc3ccccc3cc12 reads 3.29

The measured TGI associated with O=[N+]([O-])c1cccc2nc3ccccc3c(NCCCN3CCCCC3)c12 reads 0.0492

The measured TGI associated with CN1CCN(Cc2ccc(NC(=O)c3cncc(C#Cc4cnn5ccccc45)c3)cc2C(F)(F)F)CC1 reads 2.26

The measured TGI associated with CCN(CC)CC(C)(C)C(=O)/C=C/c1ccc(/C=C/C(=O)C(C)(C)CN(CC)CC)cc1 reads 0.411

The measured TGI associated with BrCC(Br)(c1ccccc1)c1ccccc1-c1cc(-c2ccccc2)cc(-c2ccccc2)n1 (stereo unspecified) reads 13.8

The measured TGI associated with CN(C)CCC1(C2=CCCC2)CC/C(=C\c2ccccc2Cl)C1=O (stereo unspecified) reads 25.7

The measured TGI associated with CC(=O)C1CCC2C3CC=C4CC(SC(=N)N)CCC4(C)C3CCC12C (stereo unspecified) reads 3.29

The measured TGI associated with O=C(O)c1ccc(Nc2nc3cc(C(F)(F)F)ccc3nc2-c2ccccc2)cc1 reads 35

###

tested on: SF-295 CNS; assay: NCI tumour cell line growth inhibition, 48 h; in the data active means GI50 below about 0.43 µM; inactive means the rest
Can you answer with just one of these options? 1 (active), 0 (inactive)

# outcome recorded in this test, key = CC[C@@H](C)Nc1cc(C(=O)NC2CC3CCC(C2)N3c2ccc(C(=O)C3CC3)cn2)c(C)cc1C(N)=O (some centres undefined)
1

# outcome recorded in this test, key = C=C1CCC2C3(C)COC(c4ccc(Cl)cc4)OC3CCC2(C)C1/C=C/C1=CCOC1=O (centres undefined)
0

# outcome recorded in this test, key = COc1cc(/C=C\c2cc(/C=C\c3ccc(O)c(OC)c3)n(C(=O)CNc3ccc(Cl)cc3)n2)ccc1O
0

# outcome recorded in this test, key = CO[C@@H]1[C@H]2[C@@H](C)c3ccoc3C[C@@H]2[C@@]2(C)CC[C@H](OC(=O)c3ccccc3)[C@](C)(C(=O)O)[C@]2(O)[C@@H]1OC(=O)c1ccccc1
0
